tested on: COLO-678 (Colorectal Carcinoma); assay: Bliss excess, mean over the matrix (fraction); higher = more synergy;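 also: after 72 h of two-drug dosing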
Category scheme (Bliss excess): lower range: < -0.08; middle range: ≥ -0.08 and < -0.03; upper range: ≥ -0.03

# molecule, label
rows = [
    ("COc1cccc(OCCCN)c1-c1cc(Nc2cnc(C#N)cn2)n[nH]1 [Prexasertib] + C=CCn1c(=O)c2cnc(Nc3ccc(N4CCN(C)CC4)cc3)nc2n1-c1cccc(C(C)(C)O)n1 [AZD1775] (first compound max 1 µM, partner max 1 µM)", "upper range"),
    ("CC1(C)CCC(CN2CCN(c3ccc(C(=O)NS(=O)(=O)c4ccc(NCC5CCOCC5)c([N+](=O)[O-])c4)c(Oc4cnc5[nH]ccc5c4)c3)CC2)=C(c2ccc(Cl)cc2)C1 [Venetoclax] + C[C@@H](Nc1cc(F)cc(F)c1)c1cc(C(=O)N(C)C)cc2c(=O)cc(N3CCOCC3)oc12 [AZD8186] (first compound max 1 µM, 7x7, partner max 3 µM)", "lower range"),
    ("CCN(CCO)CCCOc1ccc2c(Nc3cc(CC(=O)Nc4cccc(F)c4)[nH]n3)ncnc2c1 [AZD2811] + C=CCn1c(=O)c2cnc(Nc3ccc(N4CCN(C)CC4)cc3)nc2n1-c1cccc(C(C)(C)O)n1 [AZD1775] (first compound max 1 µM, partner max 1 µM)", "upper range"),
]

// return the class label for Cc1c2c(nn1C)CSCc1cc(n(C)n1)CSc1cc(c3ccccc3c1)OCCCc1c(C(=O)O)n(C)c3c-2c(Cl)ccc13 [AZD5991] + CCN(CCO)CCCOc1ccc2c(Nc3cc(CC(=O)Nc4cccc(F)c4)[nH]n3)ncnc2c1 [AZD2811] (first compound max 1 µM, 7x7, partner max 1 µM)
middle range

// return the class label for COc1cccc(OCCCN)c1-c1cc(Nc2cnc(C#N)cn2)n[nH]1 [Prexasertib] + Cc1cc2ncnn2cc1Nc1ncc2c(n1)n(C1CCOCC1)c(=O)n2C [AZD7648] (first compound max 1 µM, 7x7, partner max 10 µM)
middle range

// return the class label for COc1nnc2ccc(N3CCC(c4ccc(OCCN5CCN(C)C(=O)[C@H]5C)cc4)CC3)nn12 [AZD5153] + CCN(CCO)CCCOc1ccc2c(Nc3cc(CC(=O)Nc4cccc(F)c4)[nH]n3)ncnc2c1 [AZD2811] (first compound max 1 µM, 7x7, partner max 1 µM)
middle range

// return the class label for CC1(C)CCC(CN2CCN(c3ccc(C(=O)NS(=O)(=O)c4ccc(NCC5CCOCC5)c([N+](=O)[O-])c4)c(Oc4cnc5[nH]ccc5c4)c3)CC2)=C(c2ccc(Cl)cc2)C1 [Venetoclax] + C1CN(CCC1(C(=O)N[C@@H](CCO)C2=CC=C(C=C2)Cl)N)C3=NC=NC4=C3C=CN4 [Capivasertib] (first compound max 1 µM, 7x7, partner max 3 µM)
lower range

// return the class label for CCN(CCO)CCCOc1ccc2c(Nc3cc(CC(=O)Nc4cccc(F)c4)[nH]n3)ncnc2c1 [AZD2811] + O=C(c1cc(Cc2n[nH]c(=O)c3ccccc23)ccc1F)N1CCN(C(=O)C2CC2)CC1 [Olaparib] (first compound max 1 µM, 7x7, partner max 10 µM)
upper range

// return the class label for NC1(C(=O)N[C@@H](CCO)c2ccc(Cl)cc2)CCN(c2ncnc3[nH]ccc23)CC1 [Capivasertib] + CCN(CCO)CCCOc1ccc2c(Nc3cc(CC(=O)Nc4cccc(F)c4)[nH]n3)ncnc2c1 [AZD2811] (first compound max 10 µM, 7x7, partner max 1 µM)
upper range

// return the class label for Cc1nc(Nc2ncc(C(=O)Nc3c(C)cccc3Cl)s2)cc(N2CCN(CCO)CC2)n1 [Dasatinib] + CC(=O)Nc1cccc(-n2c(=O)n(C3CC3)c(=O)c3c(Nc4ccc(I)cc4F)n(C)c(=O)c(C)c32)c1 [Trametinib] (first compound max 2 µM, 7x7, partner max 1 µM)
lower range

// return the class label for C[C@@H](c1ccc2nccn2c1)n1nnc2ncc(-c3cnn(C)c3)nc21 [Savolitinib] + Cc1c2c(nn1C)CSCc1cc(n(C)n1)CSc1cc(c3ccccc3c1)OCCCc1c(C(=O)O)n(C)c3c-2c(Cl)ccc13 [AZD5991] (first compound max 1 µM, 7x7, partner max 1 µM)
lower range
